Catalogue of binders with associated kon
Target: T1, human interleukin 13 receptor alpha 2 (IL-13Rα2), biotinylated (human, UniProt Q14627 27-343, limits assumed, biotinylated (site not stated))
T1 construct: The methods give construct limits only for IL-13Rα1 and IL-4Rα1; For IL-13Rα2 they say only that the biotinylated receptor was captured on the SA chip; also called IL13RA2; CD213a2
T1 sequence (looked up): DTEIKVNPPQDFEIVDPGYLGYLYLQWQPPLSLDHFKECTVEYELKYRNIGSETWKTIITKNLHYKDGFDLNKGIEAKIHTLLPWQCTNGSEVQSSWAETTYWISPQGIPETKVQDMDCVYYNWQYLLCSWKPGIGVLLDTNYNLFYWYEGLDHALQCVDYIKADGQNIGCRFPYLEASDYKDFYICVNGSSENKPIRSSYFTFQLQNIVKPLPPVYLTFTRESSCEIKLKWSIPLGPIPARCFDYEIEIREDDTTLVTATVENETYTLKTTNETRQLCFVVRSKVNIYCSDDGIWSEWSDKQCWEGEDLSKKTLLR
Experiment: SPR (Biacore T100), biotinylated receptor on SA chip, 1:1 kinetic fit

binder: C10 (ligand, also called IL-13 variant C10 (L10H, R11L, V18I, R86M, K89R, R108K)) cytokine: PGPVPPSTAHLELIEELINITQNQKAPLCNGSMVWSINLTAGMYCAALESLINVSGCSAIEKTQRMLSGFCPHKVSAGQFSSLHVMDTRIEVAQFVKDLLLHLKKLFKEGQFN
units of measure: M⁻¹ s⁻¹
kon: 1.19e+06
//
binder: B2 (ligand, also called IL-13 variant B2 (V18I, R86T, D87G, T88S, L101Y, K104R, K105A)) cytokine: PGPVPPSTALRELIEELINITQNQKAPLCNGSMVWSINLTAGMYCAALESLINVSGCSAIEKTQRMLSGFCPHKVSAGQFSSLHVTGSKIEVAQFVKDLLYHLRALFREGQFN
units of measure: M⁻¹ s⁻¹
kon: 7.8e+06
